molecular target: Voltage-gated inwardly rectifying potassium channel KCNH2 (Homo sapiens) (UniProt Q12809); assay: hERG protection against dofetilide inhibition, confirmation, cell-based, thallium flux, duplicate retest, dofetilide IC70 (AID 1835); conditions: hERG cell line, FluxOR thallium flux, dofetilide-blocked; at 10 µM
Sequence (Q12809 whole entry, looked up): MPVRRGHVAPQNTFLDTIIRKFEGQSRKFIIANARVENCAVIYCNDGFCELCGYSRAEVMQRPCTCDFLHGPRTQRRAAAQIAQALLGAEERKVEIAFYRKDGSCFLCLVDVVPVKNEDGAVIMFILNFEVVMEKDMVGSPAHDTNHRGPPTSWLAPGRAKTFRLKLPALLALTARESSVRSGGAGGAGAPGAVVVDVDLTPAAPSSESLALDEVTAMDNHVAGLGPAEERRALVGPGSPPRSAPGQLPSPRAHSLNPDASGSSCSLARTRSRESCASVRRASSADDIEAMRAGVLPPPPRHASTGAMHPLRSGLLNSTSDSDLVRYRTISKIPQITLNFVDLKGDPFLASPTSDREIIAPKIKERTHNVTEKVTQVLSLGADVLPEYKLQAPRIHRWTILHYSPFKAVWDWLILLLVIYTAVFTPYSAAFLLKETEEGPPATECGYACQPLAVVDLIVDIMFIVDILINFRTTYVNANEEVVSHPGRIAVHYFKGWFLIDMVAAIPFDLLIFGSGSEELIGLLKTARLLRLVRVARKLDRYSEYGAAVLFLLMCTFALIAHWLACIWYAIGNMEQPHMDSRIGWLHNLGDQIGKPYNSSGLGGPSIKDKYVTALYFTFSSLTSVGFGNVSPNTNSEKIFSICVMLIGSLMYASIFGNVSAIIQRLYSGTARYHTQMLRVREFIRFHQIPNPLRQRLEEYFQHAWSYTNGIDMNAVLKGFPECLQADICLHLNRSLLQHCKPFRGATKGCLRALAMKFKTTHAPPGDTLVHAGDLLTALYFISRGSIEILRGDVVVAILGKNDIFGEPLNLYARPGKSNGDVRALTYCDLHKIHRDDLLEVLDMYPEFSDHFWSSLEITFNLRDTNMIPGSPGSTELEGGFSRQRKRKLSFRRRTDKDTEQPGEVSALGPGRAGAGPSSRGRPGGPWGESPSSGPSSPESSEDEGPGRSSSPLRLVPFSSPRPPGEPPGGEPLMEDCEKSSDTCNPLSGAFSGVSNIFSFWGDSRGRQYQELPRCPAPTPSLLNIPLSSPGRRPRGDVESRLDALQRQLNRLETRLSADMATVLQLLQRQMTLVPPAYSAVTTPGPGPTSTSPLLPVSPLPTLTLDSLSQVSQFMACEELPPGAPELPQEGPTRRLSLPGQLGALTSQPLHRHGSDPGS
About 750 (31%) of roughly 2,400 compounds were called active.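 Rule for the calls: active = median signal gain over dofetilide-blocked control wells reaching their mean plus 3 SD, so readout 1 at least 0; inactive = the rest.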 This is one part of the list.
Pick one and only one: active, inactive

Example results:
compound	assayed_target	category_label
CCOc1ccc(C(=O)Nc2ccccc2C(=O)O)cc1	Voltage-gated inwardly rectifying potassium channel KCNH2 (Homo sapiens) (UniProt Q12809)	active
O=C(NC(=S)Nc1nc(-c2ccc([N+](=O)[O-])cc2)cs1)c1ccco1	Voltage-gated inwardly rectifying potassium channel KCNH2 (Homo sapiens) (UniProt Q12809)	active
CC(=O)Nc1ccc2nc(NC(=O)c3ccc([N+](=O)[O-])o3)sc2c1	Voltage-gated inwardly rectifying potassium channel KCNH2 (Homo sapiens) (UniProt Q12809)	active
O=C1c2cccc3cccc(c23)C(=O)C1(O)O	Voltage-gated inwardly rectifying potassium channel KCNH2 (Homo sapiens) (UniProt Q12809)	inactive
CCCCC(=O)Nc1cccc(C(=O)Nc2ccccc2C(=O)O)c1	Voltage-gated inwardly rectifying potassium channel KCNH2 (Homo sapiens) (UniProt Q12809)	inactive
O=C(CC1NC(=O)NC1=O)Nc1ccccc1 (stereo not drawn)	Voltage-gated inwardly rectifying potassium channel KCNH2 (Homo sapiens) (UniProt Q12809)	inactive

I would be grateful if you could indicate the recorded call for Cc1ccc(/C(O)=C2\C(=O)C(=O)N(Cc3cccnc3)C2c2ccccc2[N+](=O)[O-])cc1 (stereo not drawn) .
inactive

What classification did O=C(OCC(=O)N1CCOCC1)c1ccc(Cl)cc1[N+](=O)[O-] end up with in this test?
inactive

In this assay, the call recorded for C/C(=N\NC(=O)c1ccc(Cl)cc1)c1ccc(Br)s1 was what?
inactive

Recorded call for COc1ccc(-c2csc(NC(=S)NC(=O)c3ccco3)n2)cc1Br ?
inactive

Could you please tell me the result logged for O=C(NN=C1c2ccccc2-c2ccccc21)c1ccccc1 in this assay?
inactive

* * *

target: Voltage-gated inwardly rectifying potassium channel KCNH2 (Homo sapiens); assay: hERG protection against dofetilide inhibition, confirmation, cell-based, thallium flux, duplicate retest, dofetilide IC70 (AID 1835); conditions: hERG cell line, FluxOR thallium flux, dofetilide-blocked; at 10 µM; hits give high values
About 750 (31%) of roughly 2,400 compounds were called active. This is one part of the list.
Catalogue of molecules with associated activity increase over dofetilide control, less the hit threshold

Worked cases, activity increase over dofetilide control, less the hit threshold given:
entry_smiles	obs_value
O=C(CSc1ccccc1)N1CCN(S(=O)(=O)c2cccs2)CC1	-10% (inactive)
CNC(=O)c1[nH]cnc1C(=O)Nc1ccccn1	-18% (inactive)
C[n+]1ccccc1/C=C/c1c(F)cccc1F	-2% (inactive)
CC(C)OC(=O)c1c2nc3ccccc3nc2n2c1[nH]c(=O)c1ccccc12	85% (active)
C[n+]1ccccc1/C=C/c1ccc(C#N)cc1	6% (active)

Attention now turns to another entry.
Request the reported activity increase over dofetilide control, less the hit threshold associated with CN(C)c1oc(-c2ccccc2[N+](=O)[O-])nc1C#N
-15% (inactive)

* * *

biological target: Voltage-gated inwardly rectifying potassium channel KCNH2 (Homo sapiens); test: hERG protection against dofetilide inhibition, confirmation, cell-based, thallium flux, duplicate retest, dofetilide IC70 (AID 1835); conditions: hERG cell line, FluxOR thallium flux, dofetilide-blocked; at 10 µM
Out of some 2,400 compounds screened, about 750 (31%) were called active.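 The calls were made as follows: active = median signal gain over dofetilide-blocked control wells reaching their mean plus 3 SD, so readout 1 at least 0; inactive = the rest.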 The list shows a part of the results.
Mark one answer only. Choices: active, inactive

Previously resolved entries follow.
compound	category_label
CC(C)(C)NC(=O)C(=O)NNC(=O)COc1ccc(Br)cc1	active
CCCCN(CCCC)C(=S)NC(=O)c1ccccc1Cl	active
CCc1nnc(NC(=O)c2c(C)nn(-c3ccccc3)c2Cl)s1	inactive
O=C(NCc1ccc(Cl)cc1)C1CCN(S(=O)(=O)c2cccc3nonc23)CC1	inactive

For CCCCN(C(=O)CC1CCCC1)c1c(N)n(CC(C)C)c(=O)[nH]c1=O , which call appears in the assay record?
inactive

* * *

target: Voltage-gated inwardly rectifying potassium channel KCNH2 (Homo sapiens) (UniProt Q12809); assay: hERG protection against dofetilide inhibition, confirmation, cell-based, thallium flux, duplicate retest, dofetilide IC70 (AID 1835); conditions: hERG cell line, FluxOR thallium flux, dofetilide-blocked; at 10 µM; hits give high values
Out of some 2,400 compounds screened, about 750 (31%) were called active. The list shows a part of the results.
measurement_kind: activity increase over dofetilide control, less the hit threshold (%)
Your answer is read as %, so omit the unit and give the number.

compound	obs_value
COc1ccc(N2C(=O)/C(=C/c3cccs3)NC2=S)cc1	-21

GET /values?readout=activity increase over dofetilide control, less the hit threshold&item= CCOc1ccc2nc(N3C(=O)/C(=C/c4ccccc4)NC3=S)sc2c1
71

Recorded activity increase over dofetilide control, less the hit threshold of CCCCCCc1cc2cc(-c3nnc(-c4ccccc4O)o3)c(=O)oc2cc1O , please.
-16

Suppose we examine the compound Cc1ccccc1Cc1c(C)nc2c(C(=O)NCc3ccc4c(c3)OCO4)cnn2c1C ; what activity increase over dofetilide control, less the hit threshold value has been reported?
-11

Give the measured activity increase over dofetilide control, less the hit threshold of C/C(=C/CCC(C)C1CCC2(C)C3CCC4C(C)(C)C(=O)CCC4(C)C3=CCC12C)C(=O)O (configuration not stated) .
15

What value of activity increase over dofetilide control, less the hit threshold has been reported for the following compound? O=C1OC(/C=C/c2ccc(Cl)cc2Cl)=NC/1=C\c1cccs1
-7

Return reported activity increase over dofetilide control, less the hit threshold; argument: O=c1c(O)c(-c2cccs2)oc2ccccc12
62

* * *

target: Voltage-gated inwardly rectifying potassium channel KCNH2 (Homo sapiens) (UniProt Q12809); assay: hERG protection against dofetilide inhibition, confirmation, cell-based, thallium flux, duplicate retest, dofetilide IC70 (AID 1835); details: hERG cell line, FluxOR thallium flux, dofetilide-blocked; at 10 µM
About 750 (31%) of roughly 2,400 compounds were called active.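 The calls were made as follows: active = median signal gain over dofetilide-blocked control wells reaching their mean plus 3 SD, so readout 1 at least 0; inactive = the rest.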 This is one part of the list.
Choose the fitting class; nothing outside Y for active, N for inactive is accepted.

See these solved cases before continuing.
compound	category_label
CC(C)OC(=O)N(C)c1ccc(C(O)(C(F)(F)F)C(F)(F)F)cc1	N
Cc1cccc(C(=O)CC(=O)c2cc(Cl)ccc2O)c1	N
CCOc1ccc(NC(=O)CN(C)C(=O)c2c(-c3c(F)cccc3Cl)noc2C)cc1OCC	N
COc1ccc(C(=O)NNC(=O)C(=O)Nc2ccc(C)cc2)cc1	Y
O=C(O)c1ccc(N=NNc2cccc([N+](=O)[O-])c2)cc1	N
C=CCn1c(SCC(=O)NCC2CCCO2)nnc1-c1ccccc1 (stereo not drawn)	N

Query: recorded result category for Cc1ccccc1CC(=O)NC1CCN(Cc2ccccc2)CC1 in this test
N

Please state the recorded outcome for this compound: CC12CCC(C(=O)OC3CCCCC3)(OC1=O)C2(C)C (stereo not drawn)
N

Test call for this compound, please: CCCCc1c(O)nc(SCC(=O)O)[nH]c1=O
N

// param item: Cc1nc2ccc(C(=O)O)cc2[nH]1 ; yields the recorded call
N

For this compound, state the assay outcome: O=C(/C=C/c1ccccc1)c1cc(Br)ccc(=O)c1O
Y

* * *

biological target: Voltage-gated inwardly rectifying potassium channel KCNH2 (Homo sapiens) (UniProt Q12809); assay: hERG protection against dofetilide inhibition, confirmation, cell-based, thallium flux, duplicate retest, dofetilide IC70 (AID 1835); settings: hERG cell line, FluxOR thallium flux, dofetilide-blocked; at 10 µM; hits give high values
Out of some 2,400 compounds screened, about 750 (31%) were called active. The list shows a part of the results.
measurement_kind: activity increase over dofetilide control, less the hit threshold (%)
Give the number; % is assumed, so skip it.

molecule	obs_value
COCCCn1c(=S)[nH]c2c(sc3ccccc32)c1=O	-3
Cc1ccccc1NC(=O)CC1S/C(=N/c2nccs2)N(C)C1=O (stereo not drawn)	0
CCC[C@H]1COCCS(=O)(=O)N1Cc1ccc(Br)cc1	-4

Using the record for COCCn1c(=S)[nH]c2sc3c(c2c1=O)CCCC3 , report its activity increase over dofetilide control, less the hit threshold.
28

I'd like to know its activity increase over dofetilide control, less the hit threshold. The molecule in question is Cn1c(CNC(=O)c2ccccc2F)nnc1SCc1nc2ccccc2c(=O)[nH]1
-9

* * *

target: Voltage-gated inwardly rectifying potassium channel KCNH2 (Homo sapiens) (UniProt Q12809); assay: hERG protection against dofetilide inhibition, confirmation, cell-based, thallium flux, duplicate retest, dofetilide IC70 (AID 1835); conditions: hERG cell line, FluxOR thallium flux, dofetilide-blocked; at 10 µM
The whole screen tested about 2,400 compounds, of which about 750 (31%) were called active.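 Rule for the calls: active = median signal gain over dofetilide-blocked control wells reaching their mean plus 3 SD, so readout 1 at least 0; inactive = the rest.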 Some of the results follow.
Just give me one of these, please: True = active, False = inactive

Example cases with answers are listed next.
compound	assayed_target	category_label
O=C(NC(=S)Nc1ccccc1N1CCCC1)c1ccco1	Voltage-gated inwardly rectifying potassium channel KCNH2 (Homo sapiens) (UniProt Q12809)	True
CSc1nc2c(c(=O)[nH]1)C(c1ccc(Br)cc1)CC(=O)N2 (centres undefined)	Voltage-gated inwardly rectifying potassium channel KCNH2 (Homo sapiens) (UniProt Q12809)	True
CC1CCN(c2ccccc2NC(=S)NC(=O)c2ccco2)CC1	Voltage-gated inwardly rectifying potassium channel KCNH2 (Homo sapiens) (UniProt Q12809)	False
C=CCc1cc(Cl)ccc1OCCOCCN(C)C	Voltage-gated inwardly rectifying potassium channel KCNH2 (Homo sapiens) (UniProt Q12809)	False
Cc1c(/C=C2\SC(=O)N(CC(=O)Nc3ccc4c(c3)OCO4)C2=O)c2ccccc2n1C	Voltage-gated inwardly rectifying potassium channel KCNH2 (Homo sapiens) (UniProt Q12809)	False
Cc1cc(=S)nc(-c2ccccn2)[nH]1	Voltage-gated inwardly rectifying potassium channel KCNH2 (Homo sapiens) (UniProt Q12809)	False

# outcome recorded in this test, key = Cc1ccc(NC(=O)CN2C(=O)S/C(=C/c3ccc(-c4cc(C(=O)O)ccc4C)o3)C2=O)cc1C
False

Given O=c1[nH]c(=S)[nH]c2c1C(c1ccc(Br)cc1)c1c([nH]c(=S)[nH]c1=O)O2 , state the outcome it received in this test.
False

# outcome recorded in this test, key = Oc1c(N=NC(=S)Nc2ccccc2F)c2ccccc2n1Cc1cccc(Cl)c1
False

Each compound tested received a call. Report the one for CSc1nc(C)c(Cc2ccccc2)c(=O)[nH]1 .
False

GET /call?item= CCc1ccc(NC(=O)C(=O)NNC(=O)c2cccs2)cc1 returns the recorded outcome of this test.
True

How was Cc1ccccc1NC(=O)CN1C(=O)S/C(=C\c2ccc(-c3cccc(C(=O)O)c3C)o2)C1=O classified in this test?
True

Hi, sorry to bother you, what did the test record for N#Cc1c(-c2ccco2)c2c([nH]c1=S)CCCC2 ?
False

Record request — test call for O=C(COc1ccccc1Cl)NC(=S)Nc1ccccc1N1CCCC1
True

Query: recorded result category for O=C(NC(=S)Nc1ccc(N2CCCCC2)cc1)c1ccco1 in this test
True

For Oc1c(N=NC(=S)Nc2ccccc2F)c2ccccc2n1Cc1ccc(F)cc1 , what call appears in the results of this test?
True

Per the assay record, what outcome was assigned to Cc1ccc(NC(=O)CN2C(=O)S/C(=C\c3ccc(-c4cccc(C(=O)O)c4C)o3)C2=O)cc1 ?
True

Which result was noted for this compound in the test: CCOC(=O)c1c(C)[nH]c(=S)c(C#N)c1-c1ccc(Cl)cc1
False

Per the assay record, what outcome was assigned to CCN1C(=O)[C@H]2[C@@H](c3ccc(-c4ccc(OC)cc4)cc3)N[C@@](C)(C(=O)OC)[C@H]2C1=O ?
False

Each compound tested received a call. Report the one for O=C(NC(=S)Nc1ccccc1Cl)c1ccco1 .
True

Any idea what this test logged for Cc1ccccc1NC(=O)CN1C(=O)S/C(=C\c2ccc(-c3cc(C(=O)O)ccc3C)o2)C1=O ?
False

These measurements were taken from PubChem BioAssay AID1835.
